Recorded Viability d12 (relative viability) by entry
test system: E. multilocularis metacestode vesicles; experiment: Metacestode vesicle viability assay (ATP, CellTiter-Glo); format: cell-based, Echinococcus multilocularis; conditions: overview screen, 10 μM, singlets, 12 days, relative to DMSO control
Quantity Kind: Viability d12 (relative viability) (%)

[[record]]
molecule = "C[C@H]1CC[C@@]2(O)C(C)(C)[C@@H]3CC[C@@]2(C)[C@H]1C3 [MMV1578556]"
system_tested = "E. multilocularis metacestode vesicles"
measured_result = 153.384

[[record]]
molecule = "O=[N+]([O-])c1cn2c(n1)OC[C@@H](OCc1ccc(OC(F)(F)F)cc1)C2 [MMV688755]"
system_tested = "E. multilocularis metacestode vesicles"
measured_result = 91.4293

[[record]]
molecule = "COc1cc(C2C3=C(CC(C)(C)CC3=O)Nc3ccccc3N2C(C)=O)ccc1OCc1ccccc1 (stereo not drawn) [MMV1634557]"
system_tested = "E. multilocularis metacestode vesicles"
measured_result = 141.611

[[record]]
molecule = "CC(C)(C)c1cc(CCC(=O)N2CCC2)cc(C(C)(C)C)c1O [MMV1229204]"
system_tested = "E. multilocularis metacestode vesicles"
measured_result = 39.6611

[[record]]
molecule = "NC(=O)c1[nH]c2ccc(S(N)(=O)=O)cc2c1-c1ccccc1 [MMV1581556]"
system_tested = "E. multilocularis metacestode vesicles"
measured_result = 154.578

[[record]]
molecule = "C=C(C)n1c(=O)n(Cc2ccccc2C)c2ccccc21 [MMV1579354]"
system_tested = "E. multilocularis metacestode vesicles"
measured_result = 10.0196

[[record]]
molecule = "O=[N+]([O-])c1cn(Cc2nc(O)nc(O)c2Br)cn1 [MMV1579777]"
system_tested = "E. multilocularis metacestode vesicles"
measured_result = 93.1599

[[record]]
molecule = "O=C(Nc1ccccc1C(=O)O)c1cccc(Oc2ccccc2)c1 [MMV1579784]"
system_tested = "E. multilocularis metacestode vesicles"
measured_result = 41.5815

[[record]]
molecule = "Cn1cncc1[C@@](N)(c1ccc(Cl)cc1)c1ccc2c(c1)c(-c1cccc(Cl)c1)cc(=O)n2C [MMV658803]"
system_tested = "E. multilocularis metacestode vesicles"
measured_result = 92.252

